readoutName: melting point

Value of melting point reported for the molecule FC(F)(F)c1cc(Br)cc(C(F)(F)F)n1 is 92 to 95 °C

Value of melting point reported for the molecule O=C(O)c1cc(OCc2ccccc2)cc(OCc2ccccc2)c1 is 211 to 213 °C

Value of melting point reported for the molecule COC(=O)C1CCc2c([nH]c3ccc(Cl)cc23)C1 (stereo unspecified) is 175 to 176 °C

Value of melting point reported for the molecule CSc1cc(C=O)cc(OCc2ccccc2)c1O is 117 to 119 °C

Value of melting point reported for the molecule COC(=O)c1nc2ccccc2o1 is 101 to 102 °C

Value of melting point reported for the molecule Fc1ccc(CNc2nc(Nc3cccc(C(F)(F)F)c3)nc(C(F)(F)F)n2)cc1 is 106 to 107 °C

Value of melting point reported for the molecule CCCNc1ncnc2c1ncn2C1CC(F)C(CO)O1 (stereo unspecified) is 114 to 115 °C

Value of melting point reported for the molecule CC(C)CCCC(C)C1CCC2C3=CC=C4CC(O)CC(O)C4(C)C3CCC21C (stereo unspecified) is 155 to 158 °C

Value of melting point reported for the molecule O=S(=O)(Cl)c1ccc2oc(Br)c(CBr)c2c1 is 129 to 130 °C

Value of melting point reported for the molecule O=C(Cc1c[nH]c2ccccc12)Nc1ccccc1C(=O)Nc1ccccc1 is 235 to 236 °C

Value of melting point reported for the molecule CN(c1cccc2cc(-c3ncc(CCc4n[nH]c(=O)o4)s3)[nH]c12)S(=O)(=O)c1cccs1 is 255 to 256 °C

Value of melting point reported for the molecule Cn1ncc2c1-c1cc(Cl)ccc1N(C(=O)C1CC1)C2 is 146 to 150 °C

Value of melting point reported for the molecule Cc1cc(-n2ccnc2)c2cccc(OCc3c(Cl)ccc(S(=O)(=O)N4CCC[C@H]4C(=O)NCC4CCN(CCCC(=O)O)CC4)c3Cl)c2n1 is 178 °C

Value of melting point reported for the molecule CN(C)C(=O)C1=C(C(=O)Nc2ccc(Br)cc2F)CCCC1 is 83 to 85 °C

Value of melting point reported for the molecule CCOC(=O)c1cn(C)c2nc3cc(N4CCNC(c5ccco5)C4)c(F)cc3cc2c1=O (racemic) is 198 to 200 °C

Value of melting point reported for the molecule OCCc1coc2c(O)cccc12 is 116 to 117 °C

Value of melting point reported for the molecule CC(C)Cc1ccc2c(c1)OC(=O)C2 is 24 to 25 °C

Value of melting point reported for the molecule Cc1cc(NC(=O)C(F)(c2ccccc2)c2nnn(CCCCCCCCCCCC(F)F)n2)c(C)c(C)c1O (stereo unspecified) is 96 °C

Value of melting point reported for the molecule COc1ccc2c(c1)CCC1C2=CCC2(C)C(OC(C)=O)CCC12 (stereo unspecified) is 114 to 116 °C

Value of melting point reported for the molecule COc1cc(Nc2cc(-c3ccc(F)cc3)nc3ccccc23)ccc1Cl is 274 to 276 °C

Value of melting point reported for the molecule CCCc1nc2c(N)nc3ccccc3c2n1CC1(O)CCOC1 (stereo unspecified) is 201 to 203 °C
